# Population Fragmented Nuclei (%) values compiled below
system: Fibroblast; assay: Multiplex assay against human fibroblast; type: toxicity, cell-based; settings: 24 h, 10 µM, compound concentration 10 uM, replicate 2
measured.endpoint: Population Fragmented Nuclei (%)

CCCCC1=NC2(CCCC2)C(=O)N1Cc1ccc(-c2ccccc2-c2nnn[nH]2)cc1 :: 36%
CC(=O)Nc1cccc2c1c(Sc1ccc(Cl)cc1)c(C)n2CC(=O)O :: 36%
Cc1onc(-c2ccccc2Cl)c1C(=O)N(C)c1ccc(Cl)cc1 :: 21%

====

test system: U2OS; test: Multiplex assay against U2OS; format: toxicity, cell-based; details: human, 24 h, 1 µM, compound concentration 1 uM, replicate 2
# Population Membrane Permeable-Phenotype (%) values compiled below
measured.endpoint: Population Membrane Permeable-Phenotype (%)

CN[C@@H](C)C(=O)N[C@H](C(=O)N1CCC[C@H]1C(=O)Nc1snnc1-c1ccccc1)C1CCCCC1 :: 25
Cl.N=C(N)NC(=O)Cc1c(Cl)cccc1Cl [GUANFACINE HYDROCHLORIDE] :: 8
CCCCCC(O)/C=C/[C@H]1C(=O)CC(O)C1C/C=C\CCCC(=O)O (some centres undefined) :: 5
Cc1cnc(-c2cc(N3CCN(C(=O)CCS(C)(=O)=O)CC3)ncc2Cl)c(C)c1 :: 8

====

test system: HEK-293T; test: Multiplex assay against HEK293T; type: toxicity, cell-based; conditions: human, 12 h, 10 µM, compound concentration 10 uM, replicate 1
measured.endpoint: Population Hoechst High Intensity Objects (%)

Cc1noc(-c2ccc(-c3ccc(CC(=O)O)cc3)cc2)c1NC(=O)O[C@H](C)c1ccccc1Cl :: 7
CN1CCN(c2cc(-c3ccccc3)nc(N)n2)CC1 :: 7
COc1cccc2c1c(NS(=O)(=O)c1ccc(Cl)s1)nn2Cc1cccc(CNC(=O)C(C)(C)O)c1 :: 7

====

system: Fibroblast; assay: Multiplex assay against human fibroblast; format: toxicity, cell-based; details: 12 h, 10 µM, compound concentration 10 uM, replicate 1
Threshold 40%: Population Apoptotic (%) strictly smaller gives y, otherwise n.

Cc1c(CC(=O)O)c2cccnc2n1Cc1ccc(S(C)(=O)=O)cc1C(F)(F)F :: y
CC(C)COc1ccc(CNC(=O)N(Cc2ccc(F)cc2)C2CCN(C)CC2)cc1 :: n
CCCCCC(O)/C=C/[C@H]1C(=O)CC(O)C1C/C=C\CCCC(=O)O (stereo partly specified) :: n
N#Cc1cc(F)cc(-c2nc(-c3ccc(F)cn3)no2)c1 :: n
Cc1onc(-c2ccccc2Cl)c1C(=O)N(C)c1ccc(Cl)cc1 :: y
Cl.NCCc1ccc(O)c(O)c1 [DOPAMINE HYDROCHLORIDE] :: n
CCCOc1ccc2[nH]cc(C3=CCNCC3)c2n1.Cl :: n
COC[C@@H](c1ccc(C(F)(F)F)cc1)N1CCN(C2(C)CCN(C(=O)c3c(C)ncnc3C)CC2)C[C@@H]1C.O=C(O)/C=C\C(=O)O [VICRIVIROC MALEATE] :: n
C[C@H](N)COC(=O)[C@@H](CCCCN)NC(=O)Cc1c(-c2ccc3ccccc3c2)[nH]c2c1ccc1ccccc12 :: n
Cc1cccc(NC(=O)CN2CCC(c3ccccn3)CC2)c1.Cl.Cl :: n
CCCCC(=O)N(Cc1ccc(-c2ccccc2-c2nnn[nH]2)cc1)[C@H](C(=O)O)C(C)C :: y
Cc1sc2c(c1C)C(c1ccc(Cl)cc1)=N[C@@H](CC(=O)NCCCCCCCCNC(=O)COc1cccc3c1C(=O)N(C1CCC(=O)NC1=O)C3=O)c1nnc(C)n1-2 (stereo partly specified) :: n
CC[C@@H](C)Nc1nc(C)nc2c(-c3ccc(OC)nc3C)c(C)nn12 :: n
Br.CS(=O)(=O)Nc1c(O)ccc2c1CCCC2C1=NCCN1 (stereo unspecified) :: y

The origin of these recorded values is ChEMBL document CHEMBL5058577.
